# System: LOX IMVI melanoma
# Method description: NCI-60 one-dose screen, 48 h (100 = growth as untreated, 0 = no growth, -100 = all killed)
# Study conditions: 10 µM unless noted
About 83,000 compounds went through this panel and 20% of them were active in at least one assay; those are over-represented in the sample as a whole.
# maps each entry to its growth
Your answer is read as %, so omit the unit and give the number.

1) COc1ccc2nc(NC(=O)/C(=C/c3cc(OC)c(OC)c(OC)c3)c3ccc(OC)c(OC)c3)sc2c1 :: 90.4
2) Cc1cc(C)c2c(n1)sc1c(Nc3ccc(OCc4ccccc4)cc3)ncnc12 :: 91.7
3) COc1cc(/C=C2\C(=O)Nc3ccc(N(C)C)cc32)cc(OC)c1OC :: 32.8
4) C#CC[C@@H]1C[C@]2(C)[C@H]3CC[C@@H]4[C@H]5C(C(=C)C)CC[C@]5(C(=O)NCCCN5CCN(CCCN)CC5)CC[C@@]4(C)[C@]3(C)CC[C@H]2C(C)(C)[C@H]1OC(C)=O (some centres undefined) :: -85.3
5) CC[C@H](Nc1nc(N)nc(N)c1Cl)c1nc2cccc(NCc3ccc(C(=O)NO)cc3)c2c(=O)n1-c1ccccc1 :: -86.2

[ask] What value of growth has been recorded for this entry: [O-]/[N+](=C\c1ccccc1)CC1(O)CCCCC1
[reply] 101

[ask] What value of growth has been recorded for this entry: Clc1ccc(Nc2ncnc3c2sc2ncccc23)c(Cl)c1
[reply] 4.08

[ask] What value of growth has been recorded for this entry: C/C(=N\OC(=O)Nc1ccccc1)c1ccccc1
[reply] 110

[ask] What value of growth has been recorded for this entry: Clc1ccc(-c2nc(Br)cn3ccnc23)cc1
[reply] 77.8
